- TEST METHOD NOTES: yeast display, Sf9 membrane polyspecificity reagent, FACS + sequencing; frameworks hold sequencing errors
MEASUREMENT LABEL: polyreactivity (PSR sort gate)

>  <QUERY SEQUENCE>
QVQLVESGGGLVQAGGRLRLSCAASGSIFIYYAMGWYRQAPGKERELVAAISNGGSTNYADSVKGRFTISRDNAKNTVYLQMNSLKPEDTAVYYCNTDWGYFHGVRAYLGYGYWGQGTQVTVSS

>  <MEASUREMENT LABEL>
polyreactivity (PSR sort gate)

>  <RECORDED VALUE>
low polyreactivity

$$$$
>  <QUERY SEQUENCE>
QVQLVESGGGLVQAGGSLRLSCAASGRIFNPYAMGWYRQAPWKERELVAAIRRSGVDTYYADSVKGRFTNSRDNAKNTVYFQMNSLKPEDTAVYYCNAVYKRIGYSEFDYWGQGTQVTVSS

>  <MEASUREMENT LABEL>
polyreactivity (PSR sort gate)

>  <RECORDED VALUE>
low polyreactivity

$$$$
>  <QUERY SEQUENCE>
QVQLVESGGGLVQAGGSLRLSCAASGSIFGTYAMGWYRQAPGKAREFVADISAIGTSTYYADSVKGRFTISRDNAKNTVYLQMNSLKPEDTAVYYCAAESFDTVEYDYWGQGTQVTVSS

>  <MEASUREMENT LABEL>
polyreactivity (PSR sort gate)

>  <RECORDED VALUE>
low polyreactivity

$$$$
>  <QUERY SEQUENCE>
QVQLVESGGGLVQAGGSLRLSCAASGSTFDIYVMGWYRQAPGKERELVAAISRVGNTSYADSVKGRFTISRDNAKNTVYLQMNSLKPEDTAVYYCAADAPSWYDRQYDYWGQGTQVTVSS

>  <MEASUREMENT LABEL>
polyreactivity (PSR sort gate)

>  <RECORDED VALUE>
low polyreactivity

$$$$
